Reported pIC50 values follow for various compounds
# system: Ribosyldihydronicotinamide dehydrogenase [quinone] (Homo sapiens, UniProt P16083)
# Sequence (P16083 whole entry): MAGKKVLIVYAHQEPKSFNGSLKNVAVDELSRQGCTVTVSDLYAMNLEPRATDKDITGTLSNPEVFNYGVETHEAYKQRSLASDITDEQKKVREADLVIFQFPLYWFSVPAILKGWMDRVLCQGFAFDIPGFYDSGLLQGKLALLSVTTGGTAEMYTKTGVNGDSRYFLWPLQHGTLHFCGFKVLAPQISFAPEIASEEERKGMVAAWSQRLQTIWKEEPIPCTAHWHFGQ
# method.notes: Inhibition of human recombinant NQO2 using DCPIPas substrate and NRH as cofactor measured for 1 min by spectrophotometry in the prsence of BSA
The scale used: pIC50 is minus the common logarithm of the concentration in molar units.

>>> reported_value("N=C(N)c1ccc(-c2ccc(-c3ccccc3)o2)cc1")
6.86
>>> reported_value("N=C(N)c1ccc(-c2ccc(-c3cccc(F)c3)o2)cc1")
6.95
>>> reported_value("CC(=O)O.COc1ccc(-c2ccc(-c3ccc(C(=N)N)cc3)o2)cc1")
6.85
>>> reported_value("CC(=O)O.Cc1ccc(-c2ccc(-c3ccc(C(=N)N)cc3)o2)cc1")
6.96

Continue with the next compound.
Need pIC50 of "N=C(N)c1ccc(-c2ccc(-c3ccc([N+](=O)[O-])cc3)o2)cc1" , thanks.
7.62
